# experiment_notes: small-molecule microarray binders of probe aXIP, primary screen, biochemical, NeuroSMM set, 635/667 nm fluorescence (AID 1119);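 further: probe is the protein aXip251-270 applied at 1 µg/mL to compound-printed slides; binding of probe to printed compounds measured as 667 nm fluorescence plus signal to noise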
# measurement_parameters: higher = more signal, called active from +8 up or from −8 down
readout_kind: composite Z-score
Keep it simple and answer with nothing but the number.

Please review the following examples before continuing.
CC(C)(C)OC(=O)CC[C@@]1(C(=O)NCCN2CCOCC2)N=C(c2ccc(OCCCO)cc2)O[C@@H]1c1ccccc1N=[N+]=[N-] :: 0.393
C=C(CCCC)/C(=C/C[C@@H](OC(C)=O)c1ccccc1OCCO)c1cnc2ccccc2c1 :: 0.523
COCCOC(=O)N1C(=O)[C@@]2(c3cc(C#CC4=CCCCC4)ccc31)[C@H](C(N)=O)[C@H]1C(=O)O[C@H](c3ccccc3)[C@H](c3ccccc3)N1[C@@H]2c1ccc(OCCO)cc1 :: 0.362

Asked: Could you tell me which composite Z-score is on file for O=C1NC(=O)C2C1C=CC(C(O)c1ccccc1)N2Nc1ccc(Cl)cc1Cl (centres undefined) ?
Given back: -0.199

====

# experiment_notes: binders from COS7 lysate, DM2A8 probe, primary screen, torsin A project, cell lysate, small-molecule microarray, fluorescence 635/667 (AID 1065)
# measurement_parameters: higher = more signal, COS7 lysate expressing mutant human TOR1A
readout_kind: composite z-score
Keep it simple and answer with nothing but the number.

Please review the following examples before continuing.
C=CCNC(=O)[C@@H]1[C@H]2C(=O)O[C@H](c3ccccc3)[C@H](c3ccccc3)N2[C@H](c2ccccc2OCCO)[C@@]12C(=O)N(C(=O)OCCOC)c1ccc(C#CCNC(N)=O)cc12 :: 0.428
NCCCCCNC(=O)[C@@H]1C[C@@H]2C(=O)N[C@@H](Cc3ccccc3)C(=O)N2[C@@H]1c1cccc(OCCO)c1 :: 0.291
COCCn1c(C(=O)N2CCCC2)cc2c1C[C@H]1CN(C(=O)c3ccccc3)[C@@](Cc3ccc(F)cc3)(C(=O)OC)[C@@H]21 :: 0.214
COc1cc2c(cc1OC)CN(C(=O)[C@H]1[C@@H]3C(=O)O[C@@H](c4ccccc4)[C@@H](c4ccccc4)N3[C@@H](c3ccc(O)cc3)[C@]13C(=O)Nc1ccc(C#CCNC(N)=O)cc13)CC2 :: 0.0737

Asked: Could you tell me which composite z-score is on file for CN1C2C=C(CCCO)C(C3C(=O)N(C(N)=O)C(=O)C32)C1c1ccc(CN2CCCC2)cc1 (stereo not drawn) ?
Given back: -0.214

Asked: Would you kindly repeat that for COC(=O)c1c(CC[C@@H](CO)NC(=O)N[C@@H](C)Cn2cc(C3(O)CCCCC3)nn2)oc(C(C)=O)c1C(=O)OC ?
Given back: 1.14

Asked: Would you kindly repeat that for [N-]=[N+]=NCc1ccccc1C[C@]1(C(=O)O)N=C(c2ccc(OCCCO)cc2)O[C@H]1c1ccccc1N=[N+]=[N-] ?
Given back: 0.268

Asked: Would you kindly repeat that for O=C1C2C=CC(C(O)C3CCCCC3)N(Nc3ccc([N+](=O)[O-])cc3)C2C(=O)N1c1ccccc1 (stereo not drawn) ?
Given back: 0.167

====

Each record here notes measured z-score.
# experiment_notes: mitochondrial membrane potential change in A549 cells, profiling panel, cell-based, JC-1 fluorescence, basal, 24 h, 100 nL (AID 1138);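 further: A549 lung adenocarcinoma cells under basal conditions with no added stimulus; test concentration not given here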
# measurement_parameters: higher = more signal
Keep it simple and answer with nothing but the number.

Please review the following examples before continuing.
CC1CC/C=C\[C@H]2OC34C=CCN(C(C)(C)C)C(=O)[C@H]3N(CCCCCCO)C(=O)[C@@H]4C2C(=O)O1 (stereo not given in full) :: 0.699
CC1(C)[C@@H]2CC(C(O)C3C=CC4C(=O)N(c5ccccc5)C(=O)C4N3Nc3ccccc3)=C[C@H]1C2 (stereo not given in full) :: 1.01
COCCOC(=O)N1C(=O)[C@@]2(c3ccccc31)[C@H](c1ccc(O)cc1)N1[C@H](c3ccccc3)[C@H](c3ccccc3)OC(=O)[C@H]1[C@@H]2C(=O)NC[C@H](O)c1ccccc1 :: -0.767
O=C1NC(=O)C2C1C=CC(C(O)c1ccccc1)N2Nc1ccc(Cl)cc1Cl (stereo not given) :: -0.0329

Now for another entry.
Asked: Could you tell me which z-score is on file for CCOC(=O)C1=CCC(c2ccc(C)cc2)N(S(=O)(=O)c2ccc(C)cc2)C1 (stereo not given) ?
Given back: 2.06

Origin of values: PubChem BioAssay
